The reported measurements were obtained from ChEMBL document CHEMBL4507327.

Parameter IC50: see the listing below.
# Measured target: Homeodomain-interacting protein kinase 2 (Homo sapiens, UniProt Q9H2X6)
# Sequence (Q9H2X6 whole entry): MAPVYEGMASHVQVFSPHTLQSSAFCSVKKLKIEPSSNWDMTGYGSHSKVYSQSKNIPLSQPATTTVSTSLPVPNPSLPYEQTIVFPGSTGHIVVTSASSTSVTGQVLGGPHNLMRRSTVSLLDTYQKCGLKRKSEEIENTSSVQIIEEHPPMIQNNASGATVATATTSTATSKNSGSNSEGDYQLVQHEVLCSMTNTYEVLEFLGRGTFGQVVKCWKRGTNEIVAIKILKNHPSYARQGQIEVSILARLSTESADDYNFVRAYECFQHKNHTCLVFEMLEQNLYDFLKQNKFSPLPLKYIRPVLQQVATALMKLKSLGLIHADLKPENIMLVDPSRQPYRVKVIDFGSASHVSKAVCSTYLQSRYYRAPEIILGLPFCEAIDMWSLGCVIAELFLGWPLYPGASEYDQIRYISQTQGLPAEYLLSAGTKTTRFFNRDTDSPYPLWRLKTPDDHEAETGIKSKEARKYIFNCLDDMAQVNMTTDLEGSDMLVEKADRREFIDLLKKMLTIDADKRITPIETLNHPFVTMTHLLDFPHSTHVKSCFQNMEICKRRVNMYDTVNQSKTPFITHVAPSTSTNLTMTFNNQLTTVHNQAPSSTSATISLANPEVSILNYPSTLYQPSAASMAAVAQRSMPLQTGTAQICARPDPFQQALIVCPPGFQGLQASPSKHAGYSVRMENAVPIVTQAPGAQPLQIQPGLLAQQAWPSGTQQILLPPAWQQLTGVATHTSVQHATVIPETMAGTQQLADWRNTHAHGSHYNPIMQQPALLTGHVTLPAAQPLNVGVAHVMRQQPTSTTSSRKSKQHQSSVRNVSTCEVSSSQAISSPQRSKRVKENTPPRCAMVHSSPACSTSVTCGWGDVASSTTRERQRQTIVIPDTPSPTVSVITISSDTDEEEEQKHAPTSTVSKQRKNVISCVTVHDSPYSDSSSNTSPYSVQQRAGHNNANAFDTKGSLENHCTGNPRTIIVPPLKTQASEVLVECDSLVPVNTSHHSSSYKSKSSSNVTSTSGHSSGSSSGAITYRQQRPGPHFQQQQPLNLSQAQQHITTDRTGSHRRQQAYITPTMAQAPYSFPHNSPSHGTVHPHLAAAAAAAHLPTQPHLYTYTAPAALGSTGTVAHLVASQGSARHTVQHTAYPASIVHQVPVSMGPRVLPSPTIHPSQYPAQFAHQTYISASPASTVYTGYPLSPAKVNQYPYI
Answer in nM, number only, no unit symbol.

May I ask what IC50 has been recorded for CN1C(=O)[C@@H](N2CCc3cn(Cc4ccccc4)nc3C2=O)COc2ccccc21 ? 1000

Next:
Fill in: IC50 of CN1C(=O)[C@@H](N2CCc3cn(CC4CCS(=O)(=O)CC4)nc3C2=O)COc2ccccc21 [TP-030n] is ___ 1000

----------
# Measured target: Serine/threonine-protein kinase Nek8 (Homo sapiens)
# Sequence (Q86SG6 whole entry): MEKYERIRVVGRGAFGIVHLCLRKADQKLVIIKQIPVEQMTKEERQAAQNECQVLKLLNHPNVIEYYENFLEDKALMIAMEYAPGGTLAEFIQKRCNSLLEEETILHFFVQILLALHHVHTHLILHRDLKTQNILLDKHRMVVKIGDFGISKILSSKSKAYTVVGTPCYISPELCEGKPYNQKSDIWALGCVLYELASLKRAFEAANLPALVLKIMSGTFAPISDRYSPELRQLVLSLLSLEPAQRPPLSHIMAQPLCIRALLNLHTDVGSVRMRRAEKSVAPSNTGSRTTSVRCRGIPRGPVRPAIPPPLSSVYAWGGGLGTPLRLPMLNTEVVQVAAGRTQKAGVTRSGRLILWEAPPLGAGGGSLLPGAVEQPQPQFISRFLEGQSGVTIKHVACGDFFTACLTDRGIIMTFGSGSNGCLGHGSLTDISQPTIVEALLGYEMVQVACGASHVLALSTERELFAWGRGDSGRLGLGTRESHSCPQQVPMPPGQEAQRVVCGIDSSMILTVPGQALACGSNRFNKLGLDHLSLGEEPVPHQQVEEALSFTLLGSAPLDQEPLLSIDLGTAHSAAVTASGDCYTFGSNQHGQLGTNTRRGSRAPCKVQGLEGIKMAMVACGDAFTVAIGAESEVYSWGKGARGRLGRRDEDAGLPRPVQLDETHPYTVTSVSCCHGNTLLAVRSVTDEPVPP
Endpoint name: IC50 (nM)
The reply should be a number in nM, with the unit left off.

Find the measured IC50: item CN1C(=O)[C@@H](N2CCc3cn(Cc4ccccc4)nc3C2=O)COc2ccccc21 , target or system Serine/threonine-protein kinase Nek8 (Homo sapiens). 1000
